From: paper PMC2566858

Biological target: T1, rGyr_fl Y851F (full-length reverse gyrase) (Thermotoga maritima, UniProt O51934 1-1104, Y851F)
T1 sequence: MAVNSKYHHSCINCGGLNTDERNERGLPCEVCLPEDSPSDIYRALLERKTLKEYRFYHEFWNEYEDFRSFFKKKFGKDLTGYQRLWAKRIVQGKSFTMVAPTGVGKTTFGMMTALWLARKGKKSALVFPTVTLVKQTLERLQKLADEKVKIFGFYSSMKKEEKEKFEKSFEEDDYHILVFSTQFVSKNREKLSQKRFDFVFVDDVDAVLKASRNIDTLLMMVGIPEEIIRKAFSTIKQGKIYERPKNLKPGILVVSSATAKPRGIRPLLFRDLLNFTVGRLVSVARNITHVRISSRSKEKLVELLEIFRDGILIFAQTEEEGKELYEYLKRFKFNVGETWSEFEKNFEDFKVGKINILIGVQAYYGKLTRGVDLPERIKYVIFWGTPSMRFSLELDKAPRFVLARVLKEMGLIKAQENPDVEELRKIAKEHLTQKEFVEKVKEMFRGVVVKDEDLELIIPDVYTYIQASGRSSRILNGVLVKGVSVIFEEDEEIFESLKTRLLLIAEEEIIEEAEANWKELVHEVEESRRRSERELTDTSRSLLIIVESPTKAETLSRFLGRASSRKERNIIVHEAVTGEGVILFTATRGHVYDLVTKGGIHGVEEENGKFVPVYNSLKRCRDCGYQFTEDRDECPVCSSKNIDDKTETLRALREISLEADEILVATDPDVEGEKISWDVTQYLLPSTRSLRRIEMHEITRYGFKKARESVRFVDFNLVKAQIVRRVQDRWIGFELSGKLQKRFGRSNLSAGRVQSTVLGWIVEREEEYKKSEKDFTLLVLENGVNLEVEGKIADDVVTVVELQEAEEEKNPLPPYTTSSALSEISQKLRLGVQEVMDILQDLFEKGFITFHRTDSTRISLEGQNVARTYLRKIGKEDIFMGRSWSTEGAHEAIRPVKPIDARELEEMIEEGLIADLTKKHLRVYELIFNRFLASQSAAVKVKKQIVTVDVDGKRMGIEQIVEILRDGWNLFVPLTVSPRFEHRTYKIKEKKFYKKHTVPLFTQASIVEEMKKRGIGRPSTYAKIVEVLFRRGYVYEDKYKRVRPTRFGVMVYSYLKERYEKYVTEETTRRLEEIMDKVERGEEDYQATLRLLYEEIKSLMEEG
Assay: fluorescence anisotropy
Quantity Measured: pKd
Worth noting: pKd values are minus log10 of concentrations stated in mol/L.

Input: Look up pKd for this binder: 60-base ssDNA (ssDNA) DNA: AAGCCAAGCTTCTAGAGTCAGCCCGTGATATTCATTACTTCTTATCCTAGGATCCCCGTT
Output: 7.31
